test system: VDR:RXRa (NR concentration 270 nM, RXRa partner concentration 90 nM); assay: PBM binding z-score (relative to random genomic background probes); higher = stronger binding; sequences stand for … in GC…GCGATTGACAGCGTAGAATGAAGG
REPORTED METRIC: PBM binding z-score

SEQUENCE RECORD: CCGACTGGGGCTGAAAGGTTACCATACCATCCGG
REPORTED METRIC: PBM binding z-score
EXPERIMENTAL RESULT: 0.343
//
SEQUENCE RECORD: GCTGCTAGGTCAACGGATGGTCAGCTAAAGCTCG
REPORTED METRIC: PBM binding z-score
EXPERIMENTAL RESULT: 0.92
//
SEQUENCE RECORD: AATACAGGGTCATGGTAGGCCAGAGTACGCACAG
REPORTED METRIC: PBM binding z-score
EXPERIMENTAL RESULT: 4.95
//
SEQUENCE RECORD: TCTCGTAGATCAGCAGGTTAAGAAAGCTGGCCAA
REPORTED METRIC: PBM binding z-score
EXPERIMENTAL RESULT: 0.21
//
SEQUENCE RECORD: GCATATAGGCAATACAAGGTGAAAGTCCGATTGT
REPORTED METRIC: PBM binding z-score
EXPERIMENTAL RESULT: 0.0245
//
SEQUENCE RECORD: CCTAGTTGGTCGAGGTCACACACGCTATAGGTAC
REPORTED METRIC: PBM binding z-score
EXPERIMENTAL RESULT: 4.8

The measurements presented in this section are drawn from the supplement of paper PMC6555819.
